This section presents molecules with their documented GI50 values.
Test system: HCT-116
assay-summary: NCI tumour cell line growth inhibition, 48 h
Activity calls are given as the source filed them. Cut-off read from the data, not from the text of the source: active = GI50 up to about 1.1 µM and inactive = higher.

molecule	experimental-system	GI50
COc1cc([C@@H]2OCC3C(c4ccc5c(c4)OCO5)OCC32)cc(OC)c1OC (stereo partly drawn)	HCT-116	66.7 µM (inactive)
O=C(N/N=C(/CCN1CCCC1)CC(c1ccccc1)c1c(O)c2ccccc2oc1=O)c1ccncc1 (stereo not drawn)	HCT-116	> 100 µM (inactive)
Cc1ccc(S(=O)(=O)N/N=C2\C3CC4CC(C3)C2C4)cc1 (stereo not drawn)	HCT-116	> 10 µM (inactive)
NC(=O)NNCc1c(-c2ccccc2)no[n+]1[O-]	HCT-116	> 100 µM (inactive)
CCOc1ccccc1NC(=O)C(=O)C(/C(=N/N)C(=O)OC)c1nc2ccc([N+](=O)[O-])cc2nc1O (stereo not drawn)	HCT-116	> 100 µM (inactive)
COc1cccc2c1OC(c1ccc(C#N)cc1)C([N+](=O)[O-])=C2 (stereo not drawn)	HCT-116	1.48 µM (inactive)
O=C1/C(=C/c2cccs2)NC(=S)N1CN1CCOCC1	HCT-116	> 100 µM (inactive)
CC1=CC(O)CC(C)(C)C1/C=C/C(C)=C/C=C/C(C)=C/C=C/C=C(C)/C=C/C=C(C)/C=C/C1=C(C)CC(O)CC1(C)C (stereo not drawn)	HCT-116	15.7 µM (inactive)

====

Tested on: SNB-75
assay-summary: NCI tumour cell line growth inhibition, 48 h
Activity calls are given as the source filed them. Rule as the data show it: active = GI50 up to about 1.1 µM and inactive = higher.
This section presents compounds with their documented GI50 values.

compound	GI50
Cc1nc2ccccc2c(=O)n1CC(=O)O	> 100 µM (inactive)
O=C1CCCCCCCCCCOC(=O)CCCCCCCCCCO1	> 100 µM (inactive)
CCCCCCCCCCCCCCCCCCNc1ccn(C2OC(CO)C(OP(=O)(O)OCC(O)COP(=O)(O)OCC3OC(n4cc(F)c(NCCCCCCCCCCCCCCCCCC)nc4=O)CC3O)C2O)c(=O)n1 (stereo not given)	> 50 µM (inactive)
NC(C(=O)OC(=O)c1ccccc1)C(=O)OC(=O)c1ccccc1	> 100 µM (inactive)
C[N+]1(C)CN(c2ccccc2)C2(CCN(CCCC(=O)c3cccs3)CC2)C1=O	27.7 µM (inactive)
COc1ccc(/N=N/C(=N/NC(=O)c2ccccc2)c2ccc(N(CCC#N)CCC#N)cc2C)cc1	43 µM (inactive)
C=C1CC(OC)(C(OC)C(=O)N[C@H]2OCO[C@H]3C2O[C@H](C[C@@H](COC)OC)C(C)(C)C3OC)O[C@H](C)[C@@H]1C (stereo not given in full)	1.21 µM (inactive)
COc1ccc(CCn2c(=O)c3ccccc3n(C)c2=O)cc1	25.9 µM (inactive)
CC(=O)O[C@H]1CC[C@@]2(C)C(=CC[C@@H]3C2CC[C@]2(C)Nc4oncc4CC32)C1 (stereo not given in full)	24.2 µM (inactive)
O=C(O)CC(Sc1ccccc1)c1ccccc1 (stereo not given)	> 100 µM (inactive)

====

This section presents compounds with their documented GI50 values.
System: K562
assay-summary: NCI tumour cell line growth inhibition, 48 h
The source made the active and inactive calls. Cut-off read from the data, not from the text of the source: active = GI50 up to about 1.1 µM and inactive = higher.

compound	experimental-system	GI50
CN(Cc1c2ccccc2cc2ccccc12)S(=O)(=O)c1ccc(-c2c3nc(c(-c4ccc(S(=O)(=O)N(C)Cc5c6ccccc6cc6ccccc56)cc4)c4ccc([nH]4)c(-c4ccc(S(=O)(=O)N(C)Cc5c6ccccc6cc6ccccc56)cc4)c4nc(c(-c5ccc(S(=O)(=O)N(C)Cc6c7ccccc7cc7ccccc67)cc5)c5ccc2[nH]5)C=C4)C=C3)cc1	K562	> 100 µM (inactive)
COc1ccc(Nc2nnc(-c3nsc4ccccc34)s2)cc1	K562	47.2 µM (inactive)
O=S1(=O)CSc2ccc3ccccc3c2-c2c1ccc1ccccc21	K562	> 100 µM (inactive)
COc1ccc(-c2c(-c3ccccc3)c(C)c3ccccn23)cc1	K562	50 µM (inactive)
NNC(=O)CCC(NS(=O)(=O)c1ccc(Cl)cc1)C(=O)NN (stereo unspecified)	K562	> 100 µM (inactive)
COc1c(Cl)cc(NC(=S)C#N)cc1Cl	K562	> 52.2 µM (inactive)

====

Tested on: HT-29
assay-summary: NCI tumour cell line growth inhibition, 48 h
Active and inactive are the calls of the source. Cut-off read from the data, not from the text of the source: active = GI50 up to about 1.1 µM and inactive = higher.
Possible outcomes: active, inactive

molecule	category-label
CC(NNC(=O)c1cc[n+]([BH2-]C#N)cc1)c1ccc(Cl)c(Cl)c1 (stereo not given)	inactive
CSCC[C@H](NC(=O)[C@H](CC(C)C)NC(=O)[C@@H](Cc1ccccc1)NC(=O)CNC(=O)[C@@H](NC(=O)[C@H](C)NC(=O)[C@H](Cc1c[nH]c2ccccc12)NC(=O)[C@H](CCC(N)=O)NC(=O)[C@H](N)CC(N)=O)C(C)C)C(N)=O	inactive
Cc1cccc(C)c1NC(=O)CCc1n[nH]c(=S)o1	inactive
O=C1C(NCCc2cc(Br)c(O)c(Br)c2)=CC(=O)c2ncccc21	inactive
CCCC(=O)Nc1cc(/C=C/C(=O)N2C[C@H]3C[C@@]34C2=CC(=O)c2[nH]cc(C)c24)n(C)c1	active

====

This section presents compounds with their documented GI50 values.
System: ACHN
assay-summary: NCI tumour cell line growth inhibition, 48 h
Active and inactive are the calls of the source. Rule as the data show it: active = GI50 up to about 1.1 µM and inactive = higher.

compound	GI50
O=S1(=O)CSc2ccc3ccccc3c2-c2c1ccc1ccccc21	> 100 µM (inactive)
COc1ccc(C2C3CCc4ccccc4C3=NN2S(=O)(=O)c2cccc(C(=O)O)c2OC)cc1 (stereo not drawn)	7.83 µM (inactive)
CC(C)(C)OC(=O)NNCC(O)COc1ccccc1 (stereo not drawn)	> 100 µM (inactive)
COc1ccc(C(=O)c2sc(N(C)C)nc2-c2ccccc2)cc1	33.7 µM (inactive)
CC1N=C(c2ccccc2)OC1=O (stereo not drawn)	> 100 µM (inactive)
COc1cccc(/C=C(/C(=O)O)c2cc(OC)c(OC)c(OC)c2)c1	> 100 µM (inactive)
COC(=O)/C=C(C)/C=C/c1cc(C(C)=O)c(C)o1	> 100 µM (inactive)
COc1cccc2c1OC(c1ccc(C#N)cc1)C([N+](=O)[O-])=C2 (stereo not drawn)	1.77 µM (inactive)

====

Tested on: NCI-H460
assay-summary: NCI tumour cell line growth inhibition, 48 h
Active and inactive are the calls of the source. No stated cut-off is given here; in the data, active = GI50 up to about 1.1 µM and inactive = higher.
Possible outcomes: 1 for active, 0 for inactive

compound	category-label
COc1cc([C@@H]2OCC3C(c4ccc5c(c4)OCO5)OCC32)cc(OC)c1OC (stereo not given in full)	0
Cc1cc(C)nc(Sc2c([N+](=O)[O-])ncn2C)n1	0
Cc1ccc(C(O)(c2ccc(C)cc2)c2ccccn2)cc1	0
Oc1cccc2c1[nH]c1c(C3=C[C@@]4(O)CC/C=C\CCCCN5CC[C@@H]3[C@]3(CC6/C=C\CCCCN6[C@H]34)C5)nccc12 (stereo not given in full)	1
COc1cccc(/C=C/c2ccc(S(N)(=O)=O)cc2)c1	0
COc1ccc(-c2cc(=O)c3c(OC)c(OC)c(OC)c(OC)c3o2)c(OC)c1	0
CN(C)C(=S)/N=c1\ssc(=S)n1-c1ccccc1	0
CC(=O)ONC(C(=O)C(C)(C)C)C(=O)C(C)(C)C	0
O=C(Nc1ccc(Cl)cc1)NS(=O)(=O)c1coc2cc(F)ccc2c1=O	0
COC(=O)C(C(=O)C(=O)Nc1cccc([N+](=O)[O-])c1)c1nc2ccc([N+](=O)[O-])cc2nc1O (stereo not given)	0
COc1cc2c(c(OC)c1OC)-c1ccc(SC)c(=O)cc1[C@@H](NC(=O)C(F)(F)F)CC2	1
O=C(NC(Cc1c[nH]c2ccccc12)C(=O)Nc1ccc(Br)cc1)OCc1ccccc1 (stereo not given)	0
OC[C@@H](O)[C@H](O)[C@@H](O)/C=N/Nc1ccc(Cl)nn1	0
Cc1cc2c(c(/C=N/c3ccccc3O)c1)OC1(C=C2)Oc2ccccc2C(=O)N1C (stereo not given)	0
CC(=O)O[C@H]1CC[C@@]2(C)C(=CC[C@@H]3C2CC[C@]2(C)Nc4oncc4CC32)C1 (stereo not given in full)	0
COc1ccccc1OCc1nnc(SCC(=O)O)n1-c1ccccc1	0
O=c1c2cnccc2cc2c3ccccc3ccn12	0
CC1N=C(c2ccccc2)OC1=O (stereo not given)	0
O=C1C(NCCc2cc(Br)c(O)c(Br)c2)=CC(=O)c2ncccc21	0
CN(C)c1cccc2c1C(=O)C=CC21CCc2ccc(N(C)C)c3c(N(C)C)ccc1c23 (stereo not given)	0
C[C@@H]1C(=O)O[C@H]1[C@H](O)CO	0
Cc1[nH]c2ccccc2c1C1=NO/C(=N\O)C(c2c(C)[nH]c3ccccc23)C1 (stereo not given)	0
O=c1c(C(c2ccc(/C=C/c3ccccc3)cc2)c2c(O)oc3ccccc3c2=O)c(O)oc2ccccc12	0
C[C@]12CCc3nonc3C1CC[C@@H]1C2CC[C@@]2(C)C1CC[C@@H]2O (stereo not given in full)	0
Cc1n[nH]c(=O)n1-n1cccc1	0
COc1ccc(Nc2nnc(-c3nsc4ccccc34)s2)cc1	0
CCN1CC2=C(N=c3s/c(=C\c4ccc(Cl)cc4)c(=O)n3C2c2ccc(Cl)cc2)/C(=C/c2ccc(Cl)cc2)C1 (stereo not given)	0
Oc1ccc(-c2nc(-c3cccnc3)c(-c3ccc(F)cc3)[nH]2)cc1	0
COc1cccc2c1OC(c1ccc(C#N)cc1)C([N+](=O)[O-])=C2 (stereo not given)	0
CCOC(=O)C1=C(O)C(=O)c2ccsc2C1=O	0
Cc1cccc(C)c1NC(=O)CCc1n[nH]c(=S)o1	0
O=C(Nc1ccc(C(F)(F)F)cc1[N+](=O)[O-])C(=O)C1NC(=S)NC1=O (stereo not given)	0
CC1=C(C)C(=O)C2=C(OCCO2)C1=O	0
CC(C)(C)OC(=O)C(C1NC(C(=O)O)C(C)(C)S1)N1C(=O)c2ccccc2C1=O (stereo not given)	0
O=[N+]([O-])c1cc(I)cc(/C=N/NS(=O)(=O)c2ccc(F)cc2)c1O	0
